assay: Human HepG2 cell viability assay in 384 well format; assay type: toxicity, cell-based; set-up: dose 125 nL, time 70.5 hour; concentration not given beside the values; conditions: HepG2 cells, read-out: Inhibition
reported_property: cytotoxicity at 70.5 h (%)
The figure you give is taken to be in %; do not add the unit.

{"structure_notation": "O=C1c2cnc(N3CCOCC3)nc2CN1Cc1cccc(F)c1", "reported_property": "cytotoxicity at 70.5 h", "obs_value": -6.18}
{"structure_notation": "O=C(NCCc1nnc2n1CCC2)NCC1(c2ccccc2F)CC1", "reported_property": "cytotoxicity at 70.5 h", "obs_value": -6.03}

Next, consider the following molecule.
Memo: O=C1[C@H]2CN(Cc3nccs3)C[C@H]2CN1c1cncnc1 , reported cytotoxicity at 70.5 h: -8.02
